Entry source: PubChem BioAssay (NCI)

Test system: NCI-H226 lung
Experiment: NCI tumour cell line growth inhibition, 48 h
readoutType: TGI

Ask: Hello, I am looking for reported TGI with NCI-H226 lung for `O=C(/C=C/c1ccc(Cl)cc1)c1ccc(Cl)c(Cl)c1` . Could you help?
Result: 34.9 µM

Ask: Entry COc1cc2c(cc1OC)C(C#N)(Cc1ccccc1)N(C(=O)c1ccccc1)C=C2 (centres undefined) , system NCI-H226 lung: what TGI was measured?
Result: > 100 µM

Ask: # get_value(readout= TGI, system= NCI-H226 lung) for `COc1ccc(C(=O)O)c(Br)c1OCc1ccccc1`
Result: > 100 µM

Ask: Any idea what TGI came out for `CN(C)CCn1cnc2sc3ccccc3c21` on NCI-H226 lung?
Result: > 100 µM

Ask: GET /values?readout=TGI&system=NCI-H226 lung&item= `Nc1ccc(Cc2ccc(N=Cc3ccc(OCc4cccc(COc5ccc(C=Nc6ccc(Cc7ccc(N)cc7)cc6)cc5)n4)cc3)cc2)cc1`
Result: > 100 µM

Ask: Record lookup: for NCI-H226 lung, what TGI belongs to CCCCCCCCCC(CCCC(O)CC(=O)O)OC1OC(COC2OC(C)C(O)C(O)C2O)C(O)C(O)C1OC1OC(CO)C(O)C(O)C1OC1OC(C)C(OC(=O)CC(C)C)C(O)C1O (centres undefined) ?
Result: > 60 µM

Ask: Could you share what TGI was measured for O=C1C=CC=C[C@@H]2C(C3OCCO3)CC[C@H]12.[C-]#[O+].[C-]#[O+].[C-]#[O+].[Fe] (some centres undefined) , tested on NCI-H226 lung?
Result: > 100 µM

Ask: Lab request: please report TGI under test system NCI-H226 lung for COC(=O)/C(=N/NC(N)=O)C(C(=O)C(=O)Nc1ccc(C)cc1)c1nc2ccc(C(=O)c3ccccc3)cc2[nH]c1=O (centres undefined)
Result: > 100 µM

Ask: NCI-H226 lung / TGI / `CCN(CC)c1ccc(/C=N/NC(=O)c2ccc(S(C)(=O)=O)cc2)c(O)c1` : value?
Result: 5.19 µM
